These measurements were taken from paper PMC8052502.

Target: T1, ScpA_(S512A), active site serine to alanine mutant of recombinant Streptococcal C5a peptidase ScpA, residues … (Streptococcus pyogenes, UniProt P15926 31-1032, S512A)
T1 construct: mimics the form released from the cell surface by SpeB; catalytic residues D130, H193, S512; also called S512A active site mutant of ScpA; source: recombinant, from plasmid pGEX ScpA_((31-1032)) mutated with QuickChange II; purified
T1 sequence: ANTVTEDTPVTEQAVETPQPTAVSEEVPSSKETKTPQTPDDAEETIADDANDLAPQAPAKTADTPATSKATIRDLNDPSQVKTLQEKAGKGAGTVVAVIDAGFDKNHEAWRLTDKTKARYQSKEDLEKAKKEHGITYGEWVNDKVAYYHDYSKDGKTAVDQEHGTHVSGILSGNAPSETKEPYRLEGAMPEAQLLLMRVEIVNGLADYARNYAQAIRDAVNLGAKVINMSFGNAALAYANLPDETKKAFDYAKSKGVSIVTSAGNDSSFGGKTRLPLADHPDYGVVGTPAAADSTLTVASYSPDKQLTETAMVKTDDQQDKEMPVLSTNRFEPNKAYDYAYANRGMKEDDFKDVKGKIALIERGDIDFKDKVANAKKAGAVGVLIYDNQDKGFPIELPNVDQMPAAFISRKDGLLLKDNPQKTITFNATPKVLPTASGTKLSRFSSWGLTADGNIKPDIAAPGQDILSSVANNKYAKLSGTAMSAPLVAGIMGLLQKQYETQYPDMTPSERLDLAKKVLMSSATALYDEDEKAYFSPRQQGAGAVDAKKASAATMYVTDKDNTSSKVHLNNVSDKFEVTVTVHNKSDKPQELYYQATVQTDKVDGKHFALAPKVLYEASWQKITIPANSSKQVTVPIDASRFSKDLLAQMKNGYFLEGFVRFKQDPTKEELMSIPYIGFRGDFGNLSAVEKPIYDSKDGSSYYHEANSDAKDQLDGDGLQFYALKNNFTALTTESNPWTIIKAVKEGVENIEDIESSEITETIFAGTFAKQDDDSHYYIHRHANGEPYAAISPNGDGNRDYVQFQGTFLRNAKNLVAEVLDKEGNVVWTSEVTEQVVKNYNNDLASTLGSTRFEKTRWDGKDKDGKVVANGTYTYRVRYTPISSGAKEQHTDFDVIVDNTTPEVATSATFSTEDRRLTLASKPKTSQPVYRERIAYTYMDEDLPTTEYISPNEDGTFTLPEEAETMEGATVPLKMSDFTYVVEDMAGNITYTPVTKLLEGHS
Assay: ITC; ScpA_(S512A) (18 μM) in the cell titrated with 170 μM rhC5a; 25 °C; 50 mM Hepes-KOH pH 7.5, 150 mM NaCl; one set of sites model; KD^ITC derived from KA
Details: both partners purified

{"columns": ["BINDER", "Kd (nM)"],
 "data": [
  ["recombinant human C5a, N-ter hexa-histidine tagged (rhC5a) (natural protein, UniProt P01031 678-751, looked up, β-mercaptoethanol added to C27 in the refolding process, numbers count on: the mature C5a (1-74); His-tagged form immobilised on the NTA chip in SPR; also called full length rhC5a; not shown: His6, N-terminal, kept) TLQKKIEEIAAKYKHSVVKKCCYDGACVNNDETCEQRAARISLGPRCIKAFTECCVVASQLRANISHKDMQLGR", 30.8]
]}
